Source of measurements: the supplement of paper PMC10567573

B1: CHCHD6 (parent)
chain: MYKLSSEQFHEAASKMESTIKPRR

Variants of: B1
Assay: protein stability index of a GFP-peptide fusion (GPS, HEK-293T) (PSI 1-6); higher = more stable;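 further: lentivirally expressed fusions sorted by FACS into six bins by GFP to DsRed ratio, PSI derived from sequencing read proportions per bin multiplied by bin number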
Details: c terminus: a fixed tail appended
The variants listed here are annotated with their protein stability index.
Give the figure only, with no unit attached.

# annotated cases, reported protein stability index shown
- M1F: 3.7
- A12W: 2.55
- I20Q: 3.82
- A13E: 4.33
- S5K: 3.56

Looking up F9M , I found its protein stability index recorded as 4.28
